TEST DESCRIPTION: yeast display, Sf9 membrane polyspecificity reagent, FACS + sequencing; frameworks hold sequencing errors
REPORTED PROPERTY: polyreactivity (PSR sort gate)

Use these answered entries as a reference point.
# RESIDUES, polyreactivity (PSR sort gate)
measured = [
    ("QLHLVESWGGLVQAGGSLRLSCAASGILFQNNDMGSYRQAPGKERELVAAITGSGGSTYYADSVKGRFTISRDNATNTVYLQMNSLKPEDTAVYYCNAVWEYYGKSDYWGQGTQVTVSS", "low polyreactivity"),
    ("QVQLVESGGGLVQSGGSLRLSCAASGRIFTHYAMGWYRQAPGKERELVAALSRSGGSTYYADSVKGRFTISRDNAKNTVYLQLNSLIPEDTADYYCDADGGRYFYRGTYREMNYWAQGTQVTVSS", "high polyreactivity"),
    ("QDQLLESGGGLVQAGGSLRISCAASGRTIIRNAMGWSRQAPGKERELVAAITSGGSTNYADSVKGRFTISRDNAKNTVYLQMNSLKPEDTAVYYCAARYGSQYKHRFYYWGQGTQVTVSS", "high polyreactivity"),
    ("QFQLVESGGGLVQAGGSLRLSCAASGSTFRHNAMGWYRQASGKEREWVATIRTSGGTTYYADSVKGRFTISRDNAKNTVYLQMNSLKPEDTAFYYCAKDALFIDGGGGYDYWGQGTQVTVSS", "low polyreactivity"),
    ("QGQLVESGGGLVQAGGSLRLSCAASGSIFVLNAMGWYRQAPGKERELVAAISGGSTNYADSVKGRFTISRDNAKNTVYLQMNSLKPEDTAVYYCAARARRRYYYWGQGTQVTVSS", "high polyreactivity"),
]

Query: For QVHLVESGGGLVQAGGSLRLSCAASGRTYIRNAMGWYRQAPGKERELVAAISSRGGRTYYADSVKGRFTISRDNAKNTVYLQMNSLKPEDTAVYYCAADFTYKLDGYDYWGQGTQVTVSS , what is its reported polyreactivity (PSR sort gate)?
Response: high polyreactivity

Query: Item: QVQLVESGGGLVQAGGRLRLSCAASGYTFVVNAMGWYRQAPGKERELVAAITGGDSTNYADSVKGRFTISRDNATNTVYLQMNSLKPEDTAVYYCAKRDVLPFQTVTGSRNDYWGQGTQVTVSS
Response: low polyreactivity

* * *

TEST DESCRIPTION: yeast display, Sf9 membrane polyspecificity reagent, FACS + sequencing; frameworks hold sequencing errors
REPORTED PROPERTY: polyreactivity (PSR sort gate)

# RESIDUES, ENDPOINT RESULT
rows = [
    ("QVQLEESGGGLVHAGGSLRLSSAASGYTFKYYALACYRQAPGKERELVAAISARGGSTYYADSVKGRFTISRDNAKNTVYLQMNSVKPEDTAVYFCAARSGYGPYRMDYWGQGTQVTVSS", "high polyreactivity"),
    ("QVQLVESGGGLVQAGGSLRLSCAASGSTFFYNAMGWYRKAPGKERELVAAITGSGTRTYYADSVKGRFTISRDNAKNTVYLQMNSLKPEDTAVYYCAKYPHPLKYRGYPSEFDYWGQGTQVTVSS", "low polyreactivity"),
    ("QVQLVESGGCLVQAGGTLRLSCAASGRIFVSYVMGWYSQAPGKEREFVAAIRRSGSSTYYADSVKGRFTISRDNEKNTVYLQMNSLKPEDTAVFYCAAYQRSRTLRRYDYWGQGTEVTVSS", "high polyreactivity"),
    ("QVHLVESGGGLVKAGGSLRLSCAASGRIFYTYAMGWYRQAPGKERELVAAISRSGGRTYYADSVKGRFTISRDNGKNTVYLQMNSLKPEDNAVYYCNAVENWLFSSHDYWGQGTQVTVSS", "low polyreactivity"),
    ("QVQLVESGGGLVQAGGSLRLSCAASGSIFPDYALGWSRQAPGKESELVAAITRRDDSTYYADSVKGRFTISRDKAKNTVYLQMNSLKPEDTAVYYCNASALDPLYAKDDYWGQGTQVTVSS", "low polyreactivity"),
]

Query: Please report the recorded polyreactivity (PSR sort gate) for QVQLVESGGGLVQAGGSLRLSCAASGSIFNTYAMGWYRQAPGKERELVAAITWSGGSTYYADSVKGRFTISRDNAKNTVYLQRNSLKPEDTAVYDCAARQRRQSYWGQGTQVTVSS .
Response: high polyreactivity

Query: Another: QDQLVESGGGLVQAGGSLRLSCAASGSTFTGYTMGWYRQAPGKERELVAAITYRGGSTYYADSVKGRFTISRDNAKNTVYLQMNSLKPEDTAVYYCAAVPEYYEYTPYDYWGQGTQVTVSS
Response: low polyreactivity

Query: Can you check QVQLVESGGGLVQAGGSLRLSCAASGRIFHVNAMGWYRQAPGKERELVAAISTSGGRTYYADSVKGRFTISRDNAKNTVYLQMNSLKPEDTAVYYCAASLGGYGERYYYWGQGTQVTVSS next?
Response: high polyreactivity

Query: Next sequence: QVQLVESGGGLVQSGGSLRLSCAASGSTFTLYAMGWYRQAPGKERELVAAIRASVGRTYNADSVKGRFTISRDNAKNTVYLQMNSLKPEDTAVYYCNAYGRYGKFRVEYDYWGQGTQVTVSS
Response: low polyreactivity

Query: And what about the sequence QVQLVDSGGGIVQAGGSLRLSCAASGTFDAYAMGWYRQEPGKERELVASISSSGGSTYYADSVKGRFTITRDNAKNTVYLQMYSLNPEDRAVYYCAATDFWYSGYYWGKGTQVTVSS ?
Response: low polyreactivity

Query: Moving on to the next sequence: QFQLEYSGGGLVQAGGSLRLSFASSGSTLARNAMGWYRQATVKERELVPSINGRTTRTYYADSVKGRFTISRDNAKNTVYLQMNSLKPEDTAVYYCAADPPGYVYGKRYYWGQGTQVTVSS
Response: high polyreactivity
